Record type: IC50 measurement. Applies to: FGFR3 protein (Homo sapiens)

Returns the measured IC50 for the input compound. Input: Cc1c(-c2cc(OC(C)c3cncc(C(F)(F)F)n3)n3c(C#N)cnc3c2)nnn1C1CCN(C#N)CC1 (single isomer, unassigned) [Example 99]
< 0.05 µM

And the next one, Cc1c(-c2cc(O[C@H](C)c3ccc(F)cn3)n3c(C#N)cnc3c2)nnn1C1CCN(C#N)CC1 [Example 170] ?
< 0.05 µM

And the next one, COCC(Oc1cc(-c2nnn(C3CCN(C#N)CC3)c2C)cn2ncc(C#N)c12)c1ccc(F)cn1 (single isomer, unassigned; isomer 1) [Example 53] ?
< 0.05 µM

And the next one, Cc1nc([C@@H](C)Oc2cc(-c3nnn(C4CCN(C#N)CC4)c3C)cn3ncc(C#N)c23)cs1 [Example 291] ?
< 0.05 µM

And the next one, Cc1c(-c2cc(OC(C)c3cccc4cnsc34)c3c(C#N)cnn3c2)nnn1C1CCN(C#N)CC1 (single isomer, unassigned; isomer 1) [Example 79] ?
< 0.05 µM

And the next one, Cc1c(-c2cc(O[C@H](C)c3ccn(C)n3)c3c(C#N)cnn3c2)nnn1C1CCN(C#N)CC1 [Example 292] ?
< 0.05 µM

And the next one, Cc1c(-c2cc(OC(C)c3cc(Cl)cnn3)c3c(C#N)cnn3c2)nnn1C1CCN(C#N)CC1 (single isomer, unassigned; isomer 1) [Example 68] ?
< 0.05 µM

And the next one, Cc1c(-c2cc(OC(C)c3ccccc3C(=O)N(C)C)c3c(C#N)cnn3c2)nnn1C1CCN(C#N)CC1 (single isomer, unassigned; isomer 2) [Example 75] ?
< 0.1 µM

And the next one, Cc1c(-c2cc(OC(C)c3ccccc3-c3ccon3)n3c(C#N)cnc3c2)nnn1C1CCN(C#N)CC1 (single isomer, unassigned) [Example 142] ?
< 0.1 µM

And the next one, Cc1c(-c2cc(O[C@H](C)c3ccccn3)n3c(C#N)cnc3c2)nnn1C1CCCN(C#N)CC1 (stereo partly shown) [Example 257] ?
< 0.05 µM

And the next one, COCC(Oc1cc(-c2nnn(C3CCN(C#N)CC3)c2C)cn2ncc(C#N)c12)c1cncc(C(F)(F)F)c1 (single isomer, unassigned; isomer 1) [Example 61] ?
< 0.05 µM

And the next one, COc1cc(-c2cnn(C3CC4(CCN(C#N)CC4)C3)c2C)cn2ncc(C#N)c12 [Example 171] ?
< 0.05 µM

And the next one, Cc1c(-c2cc(OC(c3ccc(F)cn3)C(F)(F)F)n3c(C#N)cnc3c2)nnn1C1CCN(C#N)CC1 (single isomer, unassigned; isomer 1) [Example 48] ?
< 0.05 µM

And the next one, Cc1c(-c2cc(OCC(O)c3ccc(F)cn3)c3c(Cl)cnn3c2)nnn1C1CCN(C#N)CC1 (single isomer, unassigned) [Example 154] ?
< 0.05 µM

And the next one, COc1cc(-c2cnn([C@H]3C[C@H]4CC[C@@H](C3)N4C#N)c2C)cn2ncc(C#N)c12 [Example 183] ?
< 0.05 µM

And the next one, Cc1c(-c2cc(OC(CO)c3ccc(F)cn3)n3c(C#N)cnc3c2)nnn1C1CCN(C#N)CC1 (single isomer, unassigned; isomer 1) [Example 63] ?
< 0.05 µM

And the next one, COc1cc(-c2cnn(C3CN(C4CC5CC(C4)N(C#N)C5)C3)c2C)cn2ncc(C#N)c12 (stereo not shown) [Example 225] ?
< 0.1 µM

And the next one, COCC(Oc1cc(-c2nnn(C3CCN(C#N)CC3)c2C)cc2ncc(C#N)n12)c1ccc(F)cn1 (single isomer, unassigned; isomer 1) [Example 49] ?
< 0.05 µM

And the next one, Cc1c(-c2cc(OC(C)c3cncc4cc(F)ccc34)c3c(C#N)cnn3c2)nnn1C1CCN(C#N)CC1 (stereo not shown) [Example 21] ?
< 0.05 µM
